system: SK-BR-3; assay: Alamar Blue cell proliferation inhibition, SK-BR-3; format: cell-based; settings: Homo sapiens, Alamar Blue assay, 96 h incubation, Table 2, read-out: cell proliferation inhibition, Cell Line SK-BR-3
pIC50: −log10 of the molar value.
reported metric: pIC50

# mol smiles, experimental value
data = [
    ("Cc1ccc2nc(NCCN(C)C)c3nc4ccccc4n3c2n1", "5.30 to 6.00"),
    ("Cc1ccc2nc(NCCN3CCCC3)c3nc4ccccc4n3c2n1", "5.30 to 6.00"),
    ("CN(C)CCNC(=O)c1cc2cc3cc(Cl)ccc3nc2n2ccnc12", "< 5.00"),
    ("Cc1ccc2nc(N3CCCN(C)CC3)c3nc4ccccc4n3c2n1", "5.30 to 6.00"),
    ("O=C(NCCN1CCCC1)c1cc2cc3cc(Cl)ccc3nc2n2ccnc12", "< 5.00"),
    ("C[C@@H]1CN(C(=O)c2cc3cc4cc(Cl)ccc4nc3n3ccnc23)C[C@H](C)N1", "< 5.00"),
    ("CN1CCCN(c2nc3cncnc3n3c2nc2ccccc23)CC1", "5.30 to 6.00"),
    ("Cc1ccc2nc(N3C[C@@H](C)N[C@@H](C)C3)c3nc4ccccc4n3c2n1", "5.30 to 6.00"),
    ("CN(C)CCNc1nc2cncnc2n2c1nc1ccccc12", "5.30 to 6.00"),
    ("COc1ccc2nc3c(cc(C(=O)NCCN(C)C)c4nccn43)cc2c1", "5.30 to 6.00"),
    ("CN1CCCN(C(=O)c2cc3cc4cc(Cl)ccc4nc3n3ccnc23)CC1", "< 5.00"),
    ("CN1CCCN(c2nc3cc(Cl)cnc3n3c2nc2ccccc23)CC1", "5.30 to 6.00"),
    ("C[C@@H]1CN(c2nc3cc(Cl)cnc3n3c2nc2ccccc23)C[C@H](C)N1", "< 5.00"),
    ("COc1ccc2nc3c(cc(C(=O)N4CCCN(C)CC4)c4nccn43)cc2c1", "< 5.00"),
    ("CN(C)CCNc1nc2cc(Cl)cnc2n2c1nc1ccccc12", "5.30 to 6.00"),
    ("CN1CCCN(c2nc3nccnc3n3c2nc2ccccc23)CC1", "5.30 to 6.00"),
    ("Clc1cnc2c(c1)nc(NCCN1CCCC1)c1nc3ccccc3n12", "5.30 to 6.00"),
    ("CN(C)CCNc1nc2nccnc2n2c1nc1ccccc12", "5.30 to 6.00"),
    ("C[C@@H]1CN(c2nc3cncnc3n3c2nc2ccccc23)C[C@H](C)N1", "5.30 to 6.00"),
    ("C[C@@H]1CN(c2nc3nccnc3n3c2nc2ccccc23)C[C@H](C)N1", "5.30 to 6.00"),
    ("c1ccc2c(c1)nc1c(NCCN3CCCC3)nc3cncnc3n12", "5.30 to 6.00"),
]
